Items are presented alongside their recorded pIC50.
test system: MCF7; assay: Cytotoxicity against human MCF7 cells assessed as reduction in cell viability after 72 hrs by MTT assay; format: functional, cell-based; conditions: MCF7, 72 h
pIC50: −log10 of the molar value.
attributeMeasured: pIC50

• CN1[C@@H]2c3[nH]c4ccccc4c3C[C@H]1[C@H](C#N)N1[C@@H](CNC(=O)c3ccc4ccccc4n3)c3[nH]c4ccccc4c3C[C@@H]21 = 6.82
• CN1[C@@H]2c3[nH]c4ccccc4c3C[C@H]1[C@H](C#N)N1[C@@H](CNC(=O)c3ccc(F)cc3)c3[nH]c4ccccc4c3C[C@@H]21 = 6.01
• COc1ccc(C(=O)NC[C@H]2c3[nH]c4ccccc4c3C[C@H]3[C@H]4c5[nH]c6ccccc6c5C[C@@H]([C@H](C#N)N23)N4C)cc1 = 6.22
• CN1[C@@H]2c3[nH]c4ccccc4c3C[C@H]1[C@H](C#N)N1[C@@H](CNC(=O)c3cccc(C(F)(F)F)c3)c3[nH]c4ccccc4c3C[C@@H]21 = 6.96
• CN1[C@@H]2c3[nH]c4ccccc4c3C[C@H]1[C@H](C#N)N1[C@@H](CNC(=O)c3cccc4c3CCCC4)c3[nH]c4ccccc4c3C[C@@H]21 = 5.35
• CN1[C@@H]2c3[nH]c4ccccc4c3C[C@H]1[C@H](C#N)N1[C@@H](CNC(=O)c3cc4ccccc4[nH]3)c3[nH]c4ccccc4c3C[C@@H]21 = 5.01
• CN1[C@@H]2c3[nH]c4ccccc4c3C[C@H]1[C@H](C#N)N1[C@@H](CNC(=O)c3cc4ccccc4s3)c3[nH]c4ccccc4c3C[C@@H]21 = 5.50
• CN1[C@@H]2c3[nH]c4ccccc4c3C[C@H]1[C@H](C#N)N1[C@@H](CNC(=O)c3ccc(Cl)cc3)c3[nH]c4ccccc4c3C[C@@H]21 = 6.21

Cited source: ChEMBL document CHEMBL4052628
